Values compiled from PubChem BioAssay AID2060488.

System: 966289-007-R4-J1-PDC complex spheroid viability
Test: Anticancer human tumor 966289-007-R4-J1-PDC patient-derived pancreatic adenocarcinoma cell line growth inhibition [GQUAD]; active = viability on the fitted dose curve at most 10% of control; inactive = the rest
Conditions: second compound 1 µM; first compound 0.316 µM
Choose the fitting class; nothing outside active, inactive is accepted.

Completed entries (count: 3):
Q. Could you check what this test reported for COc1ccc([C@@H](O)c2cc(-c3ncnc4cc(N5CCOCC5)ccc34)c(F)cc2Cl)nn1 + Cc1[nH]c2ccc(F)cc2c1-c1nc2c3cccnc3c3ncccc3c2[nH]1 ?
A. inactive

Q. Hi team, can someone confirm the assay call for COc1ncnc(C2CC2)c1-c1ncc2cnn(Cc3ccc(-c4nc(C(F)(F)F)cn4C(C)C)cc3)c2n1 + Cc1[nH]c2ccc(F)cc2c1-c1nc2c3cccnc3c3ncccc3c2[nH]1 ?
A. inactive

Q. Could you please tell me the result logged for CCCS(=O)(=O)Nc1ccc(F)c(C(=O)c2c[nH]c3ncc(-c4ccc(Cl)cc4)cc23)c1F + Cc1cnc(CNC(=O)c2c(=O)c3ccc(N4CCCN(C)CC4)nc3n3c2sc2ccccc23)cn1 in this assay?
A. active

Further cases:
Q. Just curious, what result did CC1COCCN1c1cc(-c2ccnn2C)c2ccnc(-c3ccn[nH]3)c2n1 (stereo not given) + Cc1[nH]c2ccc(F)cc2c1-c1nc2c3cccnc3c3ncccc3c2[nH]1 get here?
A. inactive

Q. What did this assay record as the result for CC[C@@]1(O)C(=O)OCc2c1cc1n(c2=O)Cc2cc3c(CN(C)C)c(O)ccc3nc2-1 + Cc1cnc(CNC(=O)c2c(=O)c3ccc(N4CCCN(C)CC4)nc3n3c2sc2ccccc23)cn1 ?
A. active

----------
Kindly state viability, T/C for each of the entries shown.
Test system: 966289-007-R4-J1-PDC complex spheroid viability
Experiment: Anticancer human tumor 966289-007-R4-J1-PDC cell line growth inhibition [GQUAD];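 note: spheroids exposed to the agents for seven days before readout; percent viability relative to DMSO vehicle control wells taken as 100%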
Details: second compound 1 µM; first compound 0.316 µM; stronger effect = lower value
Give bare numbers, in %.

Worked examples, 3 molecules total:
Q. Look up viability, T/C: CC1COCCN1c1cc(-c2ccnn2C)c2ccnc(-c3ccn[nH]3)c2n1 (stereo unspecified) + CN(C)c1ccc(Nc2c3ccc(NC(=O)CCN4CCCC4)cc3nc3cc(NC(=O)CCN4CCCC4)ccc23)cc1
A. 35.1

Q. Query: viability, T/C; subject: CCc1c2c(nc3ccc(O)cc13)-c1cc3c(c(=O)n1C2)COC(=O)[C@]3(O)CC + Cc1[nH]c2ccc(F)cc2c1-c1nc2c3cccnc3c3ncccc3c2[nH]1
A. 0.36

Q. Report viability, T/C for O=C(NO)c1cnc(N2CCN(S(=O)(=O)c3ccc4ccccc4c3)CC2)nc1 + Cc1[nH]c2ccc(F)cc2c1-c1nc2c3cccnc3c3ncccc3c2[nH]1 please.
A. 115

Field: viability, T/C. Fill in for each record below.
1. Cc1[nH]c2ccccc2c1CCNCc1ccc(/C=C/C(=O)NO)cc1 + CN(C)c1ccc(Nc2c3ccc(NC(=O)CCN4CCCC4)cc3nc3cc(NC(=O)CCN4CCCC4)ccc23)cc1
2. COc1ccc([C@@H](O)c2cc(-c3ncnc4cc(N5CCOCC5)ccc34)c(F)cc2Cl)nn1 + CN(C)c1ccc(Nc2c3ccc(NC(=O)CCN4CCCC4)cc3nc3cc(NC(=O)CCN4CCCC4)ccc23)cc1
3. O=c1[nH]cc(F)c(=O)[nH]1 + Cc1cnc(CNC(=O)c2c(=O)c3ccc(N4CCCN(C)CC4)nc3n3c2sc2ccccc23)cn1

A.
[3.89, 107, 9.57]
